Entries and their measured TGI follow.
Test system: HL-60(TB) leukemia
Assay: NCI tumour cell line growth inhibition, 48 h

| Molecule | TGI |
| --- | --- |
| C=C[C@H]1C=Cc2c(OC)cccc2[C@@H]1COP1(=S)NC(C)C(c2ccccc2)O1 (some centres undefined) | 50.2 µM |
| COc1ccc(C(SCC(N)C(=O)O)(c2ccc(OC)cc2)c2ccc(OC)cc2)cc1 (centres undefined) | > 31.6 µM |
| O=C(O)[C@@H](NS(=O)(=O)c1ccc([N+](=O)[O-])cc1)c1ccccc1 | > 100 µM |
| Nc1ccc(-c2ccc(-c3nc4cc(Cl)c(Cl)cc4[nH]3)cc2)cc1 | > 100 µM |
| COc1ccc2nc3ccccc3c(NCc3ccc(C)cc3)c2c1 | 4.58 µM |
| C=C(CN)CO[Si](C)(C)C(C)(C)C | > 100 µM |
| O=c1cc(-c2cccc(OCc3ccccc3)c2)[nH]c2cc3c(cc12)OCO3 | 0.412 µM |
| COC(=O)[C@H](COC(=O)/C=C/c1ccc(OC(C)=O)c(OC(C)=O)c1)NC(=O)/C=C/c1ccc(OC(C)=O)c(OC(C)=O)c1 | > 100 µM |
| Nc1ncnc2c1ncn2C1OC(COC2C(CO)OC(OC(C(=O)O)C(O)C(OP(=O)(O)O)C(O)C(=O)O)C(O)C2O)C(O)C1O (centres undefined) | > 100 µM |
| COc1cc2c3c(n(CCCN4CCCC(O)C4)c(=O)c2cc1OC)-c1cc2c(cc1C3=O)OCO2 (centres undefined) | 1.32 µM |
| COC1CC(OC)C(O)C(CO)O1 (centres undefined) | > 100 µM |
| COc1ccccc1NC(=O)C(CC(C(=O)Nc1ccccc1OC)/C(C)=N/NC(=O)c1ccccc1O)/C(C)=N/NC(=O)c1ccccc1O (centres undefined) | > 100 µM |
| O=NN(CCCl)C(=O)N[C@H]1CCCC[C@@H]1Cl | 42.7 µM |
| CC1=C[C@@H]2[C@@H](CC(CO)=C[C@H]3[C@@H]4C(C)(C)[C@]4(OCC(C)C)[C@H](OCC(C)C)[C@@H](C)[C@]23O)C1=O | > 5.52 µM |
| Nc1nc(=Nc2ccccc2)ss1 | 60.2 µM |
| O=C(OCc1ccccc1)N1CCCc2c(n(S(=O)(=O)c3ccccc3)c3ccccc23)C1 | > 100 µM |
| O=C(O)CCSC(=S)Nc1ccc([N+](=O)[O-])cc1 | 48.6 µM |
| CC12C(=O)OC(=O)C1(C)C1C=CC2O1 (centres undefined) | > 100 µM |
| O=C(CC(=O)N1N=C(N(c2ccccc2)c2ccccc2)CC1c1ccccc1)Nc1ccccc1 (centres undefined) | > 100 µM |
| CC(=O)C1=C(O)CCC1=O | > 100 µM |
| O=c1c(=[n+]2ccc(=C([O-])c3ccccc3)cc2)/c(=N/S(=O)(=O)c2ccccc2)c(=O)c2ccccc12 | 4.95 µM |
| CCO/C=C(\C(=O)OC)S(=O)(=O)c1ccc(C)cc1 | > 100 µM |
| Fc1cccc(-c2[nH]nc3nc(Nc4cccnc4)sc23)c1 | > 100 µM |
| COC(=O)C1=C(C)N(NC(N)=O)C(C)(O)C12CCOC2=O (centres undefined) | > 100 µM |
| O=c1c2cc(S(=O)(=O)Nc3c(Cl)cccc3Cl)ccc2ncn1NS(=O)(=O)c1ccc2ccccc2c1 | > 62.5 µM |
| COC(=O)c1ccccc1C1CN=NC12Cc1cc(C)cc(C)c1C2=O (centres undefined) | 51.7 µM |
| CCc1ccccc1NC(=O)C(=O)CC(=O)c1sc(Nc2ccccc2Cl)nc1C | > 100 µM |
| O=C(c1cccs1)N(Cc1cccnc1)C(=S)N(Cc1cccnc1)C(=O)c1cccs1 | > 100 µM |
| CN1CCN(CC(=O)N2c3cccc4cccc(c34)N(C(=O)CN3CCN(C)CC3)C2c2cn(-c3ccccc3)nc2-c2cccc([N+](=O)[O-])c2)CC1 | 3.75 µM |
| CC1(O)Oc2ccc3ccccc3c2C=C1C(N)=O (centres undefined) | > 100 µM |
| O=C1NC2C(CCO)CC=C[C@H]2c2cc3c(cc21)OCO3 (some centres undefined) | > 100 µM |
| c1cc(C[S+]2CCCC2)sc1C[S+]1CCCC1 | > 100 µM |
| FC(F)(F)c1cccc(C2SCc3nc4ccccc4n32)c1 (centres undefined) | > 100 µM |
| CCn1c2ccccc2c2cc(NC(=O)c3c(NCCNCCO)nc(=O)[nH]c3C)ccc21 | > 100 µM |
